SYSTEM_TESTED: V600E full-length B-Raf (Homo sapiens, UniProt P15056, V600E)
Construct: 1 μM FSBA-MEK and 20 nM V600E full-length B-Raf; made in house; host or cells: sf9 insect cells (baculovirus)
Sequence (P15056 whole entry V600E): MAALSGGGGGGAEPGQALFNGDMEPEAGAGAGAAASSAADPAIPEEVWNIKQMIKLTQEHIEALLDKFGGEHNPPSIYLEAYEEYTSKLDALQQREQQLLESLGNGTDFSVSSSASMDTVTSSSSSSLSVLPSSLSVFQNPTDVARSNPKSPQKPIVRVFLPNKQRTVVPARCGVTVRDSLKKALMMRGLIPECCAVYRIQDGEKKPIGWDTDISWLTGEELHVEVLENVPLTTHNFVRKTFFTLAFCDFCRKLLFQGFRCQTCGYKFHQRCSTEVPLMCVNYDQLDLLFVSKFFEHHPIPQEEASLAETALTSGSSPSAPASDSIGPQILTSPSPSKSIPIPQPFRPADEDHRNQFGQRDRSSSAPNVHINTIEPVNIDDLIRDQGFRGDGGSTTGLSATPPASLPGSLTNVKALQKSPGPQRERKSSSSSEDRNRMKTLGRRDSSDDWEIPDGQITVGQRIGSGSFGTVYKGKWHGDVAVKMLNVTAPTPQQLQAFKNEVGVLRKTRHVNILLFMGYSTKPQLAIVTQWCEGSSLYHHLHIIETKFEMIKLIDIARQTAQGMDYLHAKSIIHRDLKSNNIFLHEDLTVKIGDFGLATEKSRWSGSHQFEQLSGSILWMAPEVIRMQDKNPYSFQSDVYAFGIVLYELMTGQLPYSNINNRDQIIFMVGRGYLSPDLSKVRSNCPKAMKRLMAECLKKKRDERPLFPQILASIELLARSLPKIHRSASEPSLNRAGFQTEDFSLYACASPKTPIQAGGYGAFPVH
ASSAY_OVERVIEW: B-Raf IC50 Assay (B-RAF V600E inhibition assay, Example A)
Assay type: biochemical
EXPERIMENTAL_CONDITIONS: incorporation of radio labeled phosphate from [γ-33P]ATP into FSBA-modified wild-type MEK; 4 μM ATP, 20 nM V600E full-length B-Raf, 60-minute incubation, 22° C.; read-out: BRAF V600E IC50
MEASURED_QUANTITY: IC50 (nM)

a: Nc1ncnc2c(C(=O)Nc3c(Cl)ccc(NS(=O)(=O)CCCF)c3Cl)csc12
b: CCS(=O)(=O)Nc1ccc(Cl)c(NC(=O)c2csc3c(N)ncnc23)c1F
c: Nc1ncnc2c(C(=O)Nc3c(F)ccc(NS(=O)(=O)CC4CC4)c3Cl)csc12
d: CCCS(=O)(=O)Nc1ccc(F)c(NC(=O)c2csc3c(NCC(C)(C)C)ncnc23)c1F
Input line: Please rank the 4 items above; order by IC50, the highest number leading. In your reply, arrange the labels in the requested order.
Output line: d, b, c, a
(d: 902 nM, b: 3.89 nM, c: 1.9 nM, a: 0.11 nM)
